- assayText: Cytotoxicity against human MS cells after 72 hrs ny MTT assay
- Format: cell-based
assayEndpoint: IC50 (µM)

C=C(C)[C@@H]1CC[C@]2(C(=O)OC)CC[C@]3(C)[C@H](CC[C@@H]4[C@@](C)(CC#N)[C@H](C(C)(C)[C@H]5OC(C)=NN5C(C)=O)CC[C@]43C)[C@@H]12 ... 5.84
CC(=O)N1N=C(C)O[C@@H]1C(C)(C)[C@@H]1CC[C@]2(C)[C@H](CC[C@@H]3[C@H]4[C@H]5OC[C@@]4(CCC5(C)C)CC[C@]32C)[C@@]1(C)CC#N ... 11.5
CC[C@@]1(O)C(=O)OCc2c1cc1n(c2=O)Cc2cc3ccccc3nc2-1 ... 0.23
COC(=O)[C@@]1(C)CC[C@]2(C)CC[C@]3(C)C(=CC(=O)[C@@H]4[C@@](C)(CC#N)[C@H](C(C)(C)[C@H]5OC(C)=NN5C(C)=O)CC[C@]43C)[C@@H]2C1 ... 88.7
COC(=O)[C@@]1(C)CC[C@]2(C)CC[C@]3(C)C(=CC(=O)[C@@H]4[C@@](C)(CC#N)[C@H](C(C)(C)[C@@H]5OC(C)=NN5C(C)=O)CC[C@]43C)[C@@H]2C1 ... 71.2
C=C(C)[C@@H]1CC[C@]2(C(=O)OC)CC[C@]3(C)[C@H](CC[C@@H]4[C@@](C)(CC#N)[C@H](C(C)(C)[C@@H]5OC(C)=NN5C(C)=O)CC[C@]43C)[C@@H]12 ... 110
C=C(C)[C@@H]1CC[C@]2(C(=O)O)CC[C@]3(C)[C@H](CC[C@@H]4[C@@]5(C)CC[C@H](O)C(C)(C)[C@@H]5CC[C@]43C)[C@@H]12 ... 16
CC(=O)N1N=C(C)O[C@H]1C(C)(C)[C@@H]1CC[C@]2(C)[C@H](CC[C@@H]3[C@H]4[C@H]5OC[C@@]4(CCC5(C)C)CC[C@]32C)[C@@]1(C)CC#N ... 40.3

---

- assayText: Therapeutic index, ratio of IC50 for pig PEK cells to EC50 for vesicular stomatitis virus Indiana infected in pig PEK cells
- Type: cell-based
- conditionsUsed: read-out: Ratio IC50/EC50
Respond with true for selectivity ratio values of 8 and above, false for values below.

C=C(C)[C@@H]1CC[C@]2(C(=O)OC)CC[C@]3(C)[C@H](CC[C@@H]4[C@@](C)(CC#N)[C@H](C(C)(C)[C@H]5OC(C)=NN5C(C)=O)CC[C@]43C)[C@@H]12 ... false
C=C(C)[C@@H]1CC[C@]2(C(=O)O)CC[C@]3(C)[C@H](CC[C@@H]4[C@@]5(C)CC[C@H](O)C(C)(C)[C@@H]5CC[C@]43C)[C@@H]12 ... false
C=C(C)[C@@H]1CC[C@]2(C(=O)OC)CC[C@]3(C)[C@H](CC[C@@H]4[C@@](C)(CC#N)[C@H](C(C)(C)[C@@H]5OC(C)=NN5C(C)=O)CC[C@]43C)[C@@H]12 ... false
CC(=O)N/N=C/C(C)(C)[C@@H]1CC[C@]2(C)[C@H](CC[C@@H]3[C@H]4[C@H]5OC[C@@]4(CCC5(C)C)CC[C@]32C)[C@@]1(C)CC#N ... true
COC(=O)[C@@]1(C)CC[C@]2(C)CC[C@]3(C)C(=CC(=O)[C@@H]4[C@@](C)(CC#N)[C@H](C(C)(C)/C=N/NC(C)=O)CC[C@]43C)[C@@H]2C1 ... false
C=C(C)[C@@H]1CC[C@]2(C(=O)OC)CC[C@]3(C)[C@H](CC[C@@H]4[C@@](C)(CC#N)[C@H](C(C)(C)/C=N/NC(C)=O)CC[C@]43C)[C@@H]12 ... true
C=C(C)[C@@H]1CC[C@]2(C(=O)OC)CC[C@]3(C)[C@H](CC[C@@H]4[C@@](C)(CC#N)[C@H](C(C)(C)/C=N/N(C(C)=O)C(C)=O)CC[C@]43C)[C@@H]12 ... false

Cited source for all entries: ChEMBL document CHEMBL2424546
